Parameter: growth. Scope: all listed entries.
- System: SK-MEL-28 melanoma
- test method notes: NCI-60 one-dose screen, 48 h (100 = growth as untreated, 0 = no growth, -100 = all killed)
- experimental parameters: 10 µM unless noted
The panel holds about 83,000 compounds, 20% with a hit somewhere; the sample as a whole holds those more often.
endpoint name: growth (%)

CN1CCc2nc3sc(C(N)=O)c(N)c3c(-c3cccs3)c2C1: 5.5
O=C(NNC(=O)c1ccc(NC(=O)c2ccccn2)cc1)Nc1ccc([N+](=O)[O-])cc1: 99
COC1=CC(c2ccc[nH]2)=N/C1=C\c1[nH]c(C)c(CC(=O)OCc2ccccc2)c1CCC(=O)OCc1ccccc1: -52.4
C=C1C(=O)O[C@H]2[C@H]1CC/C(COC(=O)/C=C\C(=O)NCc1ccc(Cn3c(=O)sn(CCI)c3=O)cc1)=C\CC[C@@]1(C)O[C@@H]21: 40.4
COc1cc(OC)c(/C=C/C(=O)c2c(OC)cccc2OC)c(OC)c1: 13.2
[O-]/[N+](=C\c1ccc(-n2cc(Cc3ccccc3Cc3cn(-c4ccc(/C=[N+](/[O-])c5ccccc5)cc4)nn3)nn2)cc1)c1ccccc1: 110
COc1ccc(-c2cc(-c3ccc(Cl)cc3)c(C#N)c(=O)n2Cc2ccc(C(=O)Nc3ccccc3N)cc2)cc1: 70
CCOC(=O)c1c(NC(=O)c2ccc(Cl)cc2)sc2c(CN(C)C)c(O)ccc12: 73.8

----------
- Test system: EKVX NSCLC
- test method notes: NCI-60 one-dose screen, 48 h
- experimental parameters: 10 µM unless noted
- Procedure: Growth inhibition of the EKVX human Non-Small Cell Lung tumor cell line is measured as a screen for anti-cancer activity. Cells are grown in 96 well plates and exposed to the test compound for 48 hours. Compounds are tested at a single concentration, which is 10^-5 M for most compounds. The reported endpoint is percent growth (GI% or GIPRCNT), where numbers from 0 - 100% represent growth inhibition, and numbers from -100% - 0 represent cell death. […]
About 83,000 compounds went through this panel and 20% of them were active in at least one assay; those are over-represented in the sample as a whole. The source made the active and inactive calls. How the source made its calls: active means growth percent below 10; inactive means the rest.
Outcome codes: class 1 = active, class 0 = inactive

CCOc1ccc(NC(=O)CSc2oc(-c3ccccc3)nc2S(=O)(=O)c2ccc(C)cc2)cc1: class 0
O=C(CSc1nc2sc3c(c2c(=O)n1-c1ccccc1)CCCCC3)N/N=C/c1cccc([N+](=O)[O-])c1: class 0
Cn1cc(-c2csc(-c3c[nH]c4ccccc34)n2)c2cnccc21: class 1
CCNCCNc1cc(-c2ccc(C(F)(F)F)cc2)c(C#N)c2nc3ccccc3n12: class 1
CCN1CCN(C(=O)[C@]23CCC(C)(C)C[C@@H]2C2=CC[C@@H]4[C@@]5(C)CCC(=O)C(C)(C)[C@@H]5CC[C@@]4(C)[C@]2(C)CC3)CC1: class 0
O=S(=O)(Nc1ccc(Cl)c(C(F)(F)F)c1)c1ccc(-c2cnc(C3CC3)o2)cc1: class 0
C/C(Cc1ccc(Cl)cc1)=C(\c1ccc(O)cc1)c1ccc(Cl)cc1: class 0
COc1ccc2[nH]c(C(=O)N3CCN(C(=O)OCc4ccc5c(Cl)cc(Cl)c(O)c5n4)CC3)cc2c1: class 1
CCCNC(=O)Nc1ccc2cc3ccc(NC(=O)NCCC)cc3nc2c1: class 0

----------
- Tested on: PC-3 prostate
- test method notes: NCI-60 one-dose screen, 48 h (100 = growth as untreated, 0 = no growth, -100 = all killed)
- experimental parameters: 10 µM unless noted
- Description: Growth inhibition of the PC-3 human tumor cell line is measured as a screen for anti-cancer activity. Cells are grown in 96 well plates and exposed to the test compound for 48 hours. Compounds are tested at a single concentration, which is 10^-5 M for most compounds. The reported endpoint is percent growth (GI% or GIPRCNT), where numbers from 0 - 100% represent growth inhibition, and numbers from -100% - 0 represent cell death. For example, a value of 40 represents 60% growth inhibition. […]
About 83,000 compounds went through this panel and 20% of them were active in at least one assay; those are over-represented in the sample as a whole.
Parameter: growth. Scope: all listed entries.
endpoint name: growth (%)

O=C1Nc2ccccc2/C1=C/c1nc2ccccc2c(=O)[nH]1: 77.7
C=CCOC(=O)Nc1cccn([C@H](Cc2ccccc2)C(=O)NCCC(C)C)c1=O: 92.3
CCOC(=O)c1c(NC(=O)c2cccc(C(F)(F)F)c2)sc2c(CN(C)C)c(O)ccc12: 60.3
O=C(Nc1ccc(Oc2cccc(F)c2)c(Cl)c1)c1cccnc1: 24.6
C[PH+](c1nc2ccccc2nc1[PH+](C)C(C)(C)C)C(C)(C)C.C[PH+](c1nc2ccccc2nc1[PH+](C)C(C)(C)C)C(C)(C)C.[Au+].[Cl-] (configuration not stated): -83.9
OCCn1cc(-c2nc(-c3c[nH]c4ncccc34)cs2)c2ccccc21: 61.8
CCN1C(=S)N(c2ccccc2)C2C1NN=c1s/c(=C3\C(=O)N(C(C)C)c4ccccc43)c(=O)n12 (configuration not stated): 79.3
N#Cc1nc(-c2ccccc2)oc1S(=O)(=O)N1CCN(c2ccccc2)CC1: 94.9
COc1cc(OC)c(NC(=O)c2cc3ccccc3cc2O)cc1Cl: -0.247
COc1cc(/C=C/C(=O)c2ccc(F)cc2)ccc1OCCCCOc1ccc(/C=C/C(=O)c2c(C)nc3ccccc3c2C)cc1OC: 93.2
CN1C(=O)/C(=C\c2nc([P+](c3ccccc3)(c3ccccc3)c3ccccc3)c(N3CCOCC3)o2)SC1=S: 46.1
COC(=O)[C@@H](CCCCNC(=O)[C@]12CCC(C)(C)C[C@@H]1C1=CC[C@@H]3[C@@]4(C)C/C(=C/c5ccco5)C(=O)C(C)(C)[C@@H]4CC[C@@]3(C)[C@]1(C)CC2)NC(=O)[C@]12CCC(C)(C)C[C@@H]1C1=CC[C@@H]3[C@@]4(C)C/C(=C/c5ccco5)C(=O)C(C)(C)[C@@H]4CC[C@@]3(C)[C@]1(C)CC2: 90.3
COc1cccc(CNc2ccc3ncnc(Nc4ccc(F)c(Cl)c4)c3c2)c1: 52.7
O=C(CN1CCCCC1)Nc1nc(-c2cc3ccccc3oc2=O)cs1: 97.8
COc1ccc(/C=C/C(=O)c2cc3c(N)c(C(=O)Nc4cccc5ccccc45)sc3nc2C)cc1: 75.6
Cc1cc(=O)n(C(=O)Nc2ccccc2Cl)c2cc(O)ccc12: 93.6
Clc1cccc(Nc2ncnc3ccc(-c4cnc5[nH]ccc5c4)cc23)c1: 70.5
